FYI, the data here is from PubChem BioAssay (NCI).

Please provide measured growth for the entries that follow.
system: NCI-H226 lung; test: NCI-60 one-dose screen, 48 h (100 = growth as untreated, 0 = no growth, -100 = all killed); conditions: 10 µM
This is part of a sample that, as a whole, favours compounds with a hit. Of some 83,000 tested, about 20% had one in any assay.
Answer format: numeric, % implied, no suffix.

Fill in: growth on NCI-H226 lung, entry COC[C@@H](CC(C)C)N=C1NC(=O)/C(=C/c2ccc3ncoc3c2)N1 0.124

Name the value of growth reported for COc1ccc(C=CC(=O)c2ccc(-n3c(C)nc4c(cnn4-c4ccccc4)c3=O)cc2)cc1 when tested on NCI-H226 lung. 70.6

System NCI-H226 lung. Read-out growth. Item CC(C)c1ccc(C(=O)Nc2sc3c(c2C(N)=O)CCC(=O)C3=O)cc1 . Report value. 86.6

Enter growth (test system NCI-H226 lung) for O=C(CSc1nnc(-c2ccc3nc(-c4ccccc4)[nH]c3c2)o1)Nc1ccc(Br)cc1 80.2

Give growth; test system NCI-H226 lung; molecule COc1cc2c3c(n(CCCn4ccnc4)c(=O)c2cc1OC)-c1nc2c(cc1C3=O)OCO2 30.3

State, for NCI-H226 lung, measured growth of the molecule listed here: CN1CCO/C1=C(/NC(=O)c1ccc(Cl)cc1)[P+](c1ccccc1)(c1ccccc1)c1ccccc1 89.3

Please report the measured growth for CN1C(=O)/C(=C/c2ccc3ncsc3c2)NC1=NC12CC3CC(CC(O)(C3)C1)C2 tested on NCI-H226 lung. -1.04

# lookup: NCI-H226 lung growth, key = CCCCCc1ccc(S(=O)(=O)N(C(C)=O)c2cc(-c3csc(N(C)C(C)=O)n3)ccc2N2CCN(C)CC2)cc1 72.2

Name the recorded growth of Cc1ccc(-c2nc3ccc(C(=O)N=Nc4c(O)[nH]c5ccc([N+](=O)[O-])cc45)cc3[nH]2)cc1 , assay system NCI-H226 lung. 45.4

State measured growth of the molecule COc1ccc([C@H]2C(C(=O)c3ccc(Cl)cc3)C3(N[C@@H]2c2ccccc2)C(=O)Nc2ccc(Br)cc23)cc1 (stereo partly drawn) with NCI-H226 lung. -42.5

Recall the reported growth of CCC(C)S(=O)(=O)c1oc(-c2ccc(C)cc2)nc1S(=O)(=O)c1ccccc1 (stereo not drawn) on NCI-H226 lung and write it down. -10.3

Under NCI-H226 lung, report growth for O=C(O)CCCCCCCCCCN1C(=O)/C(=C/c2cnc(-c3ccc(Cl)cc3)s2)SC1=S 34.8

Enter measured growth, system NCI-H226 lung, for the molecule shown: O=C1NC(=NC23CC4CC(CC(C4)C2)C3)N/C1=C\c1ccc2ncsc2c1 -4

Lab note: NCI-H226 lung assay, enter growth for Brc1ccc(/C=C/c2n(Cc3ccc4ccccc4c3)c3ccccc3[n+]2Cc2ccc3ccccc3c2)cc1 here -85

Report the value of growth obtained on NCI-H226 lung for Nc1cc(-c2cccc(C(=O)NCc3ccc4c(c3)OCO4)c2)ccn1 . 87.3

State measured growth of the molecule O=c1[nH]c2ccc(Cl)cc2cc1CSc1ccc(Nc2nccc(-c3ccc(Cl)cc3)n2)cc1 with NCI-H226 lung. 66

Supply growth measured with NCI-H226 lung for COc1ccc(C(=O)Nc2ccc(-c3ccc4c(c3)NC(=O)/C4=C\c3ccc[nH]3)cc2)cc1 . -4.15

Please indicate recorded growth of COc1ccccc1C(=O)NNC(=O)CSc1nc2c(c(=O)[nH]1)CCCC2 measured with NCI-H226 lung. 83.6

* * *

tested on: SK-MEL-28 melanoma; experiment: NCI-60 one-dose screen, 48 h; conditions: 10 µM
About 83,000 compounds went through this panel and 20% of them were active in at least one assay; those are over-represented in the sample as a whole. Activity calls are given as the source filed them. Rule for the calls: active = growth percent below 10; inactive = the rest.
One label from this list, please: TRUE = active, FALSE = inactive

Could you kindly confirm the outcome this assay logged for Cc1cc(C)nc(NS(=O)(=O)c2ccc(N/C(N)=N/c3nccc(-c4ccccc4)n3)cc2)n1 ? FALSE

State the result this test recorded for COc1ccc2cc([C@H](C)C(=O)NCc3ccccc3)ccc2c1 . FALSE

Could you check what this test reported for O=C(Cn1nc(-c2ccccc2)ccc1=O)NN1C(=O)c2ccccc2C1=O ? FALSE

Hello, I am checking results. What call was entered for COC(=O)C[C@](O)(CCCC(C)(C)O)C(=O)O[C@H]1C(OC)=C[C@@]23CCC(=O)N2CCc2cc4c(cc2[C@@H]13)OCO4 ? FALSE

Dear colleague, could you share the recorded outcome for COc1cc2c3c(n(CCCN4CCOCC4)c(=O)c2cc1OC)-c1nc2c(cc1C3=O)OCO2 when you have a moment? FALSE

Call for entry O=C(CNc1nc(-c2ccccc2)cs1)Nc1ccc(Cl)cc1 : TRUE

Called result for COc1cc(/C=C/C(=O)c2cc(OC)c(OC)c(OC)c2)ccc1Oc1nc(Nc2ccc(F)cc2)nc(N(C)C)n1 TRUE

What did this assay record as the result for O=C(NO)c1ccc(CN2CCN(c3nc(-c4ccccc4)c4ccccc4n3)CC2)cc1 ? FALSE

Lab log entry: COC[C@@H](CC(C)C)N=C1NC(=O)/C(=C/c2ccc3ncoc3c2)N1 — outcome as called in the assay? TRUE

In this assay, the call recorded for CC[C@@]1(O)C(=O)OCc2c1cc1n(c2=O)Cc2c-1nc1cc(F)c(C)c3c1c2[C@@H](N)CC3 was what? TRUE

Would you mind telling me which call this test gave Cn1cc(-c2cc(N)n3nc(-c4c[nH]c5ccc(Br)cc45)cc3n2)c2cccnc21 ? TRUE

Call for entry Cc1ccc(C(C)C)cc1NC(=O)c1ccccc1N(C)C : FALSE

Hello, I am checking results. What call was entered for O=c1nc(-c2ccccc2)cc(-c2cc3ccccc3nc2Cl)[nH]1 ? FALSE

Could you kindly confirm the outcome this assay logged for CCOC(=O)c1c(CSc2ccccc2)n(C)c2cc(CN(C)C)c(O)c(CN(C)C)c12 ? FALSE

Identify the outcome logged in this assay for the molecule shown: COc1cccc(/C=N/NC(=O)c2ccc3nc(-c4ccc(Cl)cc4)[nH]c3c2)c1O TRUE

Field: outcome | Entry: Brc1ccc(/C=C/c2n(Cc3ccc4ccccc4c3)c3ccccc3[n+]2Cc2ccc3ccccc3c2)cc1 TRUE

Please let me know the test result on file for Nc1nc2c(F)c(F)c(F)c(F)c2s1 . FALSE

Assay outcome for C=C1CCC2C3(C)COC(c4cccc(F)c4)OC3CCC2(C)C1CC(O)C1=CCOC1=O (centres undefined) : what was it? FALSE

Record lookup: outcome of this test for c1ccc(C(=C(c2ccc(OCCN3CCCCC3)cc2)c2ccc(OCCN3CCCCC3)cc2)C2CCCC2)cc1 ? TRUE

* * *

Provide the reported growth of each item.
system: SF-268 CNS; experiment: NCI-60 one-dose screen, 48 h (100 = growth as untreated, 0 = no growth, -100 = all killed); details: 10 µM
About 83,000 compounds went through this panel and 20% of them were active in at least one assay; those are over-represented in the sample as a whole.
API: value field is a number in %; no unit string.

Check the records and state growth for COc1nccnc1NS(=O)(=O)c1ccc(NC2=C(Cl)C(=O)c3nc(C)ccc3C2=O)cc1 92.9

Please give the documented growth of COc1cccc(-c2ccnc(/N=C(\N)Nc3ccc(S(=O)(=O)Nc4nc(C)cc(C)n4)cc3)n2)c1 104

Tell me growth reported for COc1ccccc1[C@H]1C(C(=O)c2ccc(Cl)cc2)C2(N[C@@H]1c1ccccc1)C(=O)Nc1ccc(Cl)cc12 (some centres undefined) 26.3

Please report the measured growth for COc1cc2c3c(n(CCCNCCO)c(=O)c2cc1OC)-c1nc2c(cc1C3=O)OCO2 19.1

* * *

system: LOX IMVI melanoma; assay: NCI-60 one-dose screen, 48 h; details: 10 µM
About 83,000 compounds went through this panel and 20% of them were active in at least one assay; those are over-represented in the sample as a whole. Active and inactive are the calls of the source. The calls were made as follows: active = growth percent below 10; inactive = the rest.
Mark one answer only. Choices: active, inactive

Outcome logged for [2H]C([2H])([2H])Oc1ccc2ncc(C#Cc3cncc(C(=O)Nc4ccc(CN5CCN(C)CC5)c(C(F)(F)F)c4)c3)n2n1 in this assay: active

Please let me know the test result on file for CCOP(=O)(OCC)O[C@H]1CC[C@]2(C)[C@H]3CC[C@@H]4[C@@H]([C@](C)(O)CCC=C(C)C)CC[C@@]4(C)[C@]3(C)CC[C@H]2C1(C)C . active

Would you mind telling me which call this test gave Cc1ccc(CNC(=O)Cc2ccc3c(c2)CN(C2CCC(=O)NC2=O)C3=O)cc1 (stereo not drawn) ? inactive

Please share the test call associated with C/C(=N\N=C\c1ccc(N(C)C)cc1)c1ccc2c(c1)Nc1ccccc1S2 . inactive

Short answer needed: outcome of this test for O=C(Nc1nc2ccc([N+](=O)[O-])cc2s1)Nc1cc(Cl)ccc1I ? active

What did the test return for Cc1ccc(-c2nc(Nc3ccc(C)c(S(N)(=O)=O)c3)c3ccccc3n2)cc1 ? active

Any idea what this test logged for COC(=O)C[C@](O)(CCCC(C)(C)O)C(=O)O[C@H]1C(OC)=C[C@@]23CCC(=O)N2CCc2cc4c(cc2[C@@H]13)OCO4 ? inactive

Test call, this compound: CC(C)C(=O)Nc1ccc(C(=O)NC(=S)Nc2ccc(C(=O)O)cc2)cc1 inactive

Outcome logged for CC1(c2ccccc2)NC(=O)N(CC(=O)Nc2ccc(C(=O)/C=C/C=C/c3ccccc3)cc2)C1=O (stereo not drawn) in this assay: inactive

Outcome? CCN1CCN(c2ccc(NC(=O)Nc3ccc4c(c3F)CCN4c3ccnc(C(=O)NC)c3)cc2C(F)(F)F)CC1 active

Outcome? O=c1[nH]c2ccccc2cc1CSc1ccc(Nc2nccc(-c3ccc4c(c3)OCO4)n2)cc1 inactive

Returns: the outcome recorded for CN1CCO/C1=C(/NC(=O)c1ccc(Cl)cc1)[P+](c1ccccc1)(c1ccccc1)c1ccccc1 in this assay. inactive

For Clc1ccc2c(N/N=C/c3c[nH]c4ccc(Br)cc34)ccnc2c1 , which call appears in the assay record? active

State the result this test recorded for CC(C)CCSc1nc(NC2CC2)c(C#N)c(-c2ccc(C(C)C)cc2)n1 . inactive

Look up the recorded call for O=C(CS(=O)(=O)c1oc(-c2ccc(Cl)cc2)nc1S(=O)(=O)c1ccccc1)N1CCCC1 in this test. active

Returns: the outcome recorded for O=C(Nc1cccc(C(F)(F)F)c1)c1cncc(C#Cc2cnc3cccnn23)c1 in this assay. inactive

For this compound, state the assay outcome: COc1cc(OC(F)(F)F)ccc1C(=O)Nc1sc2c(c1C#N)CCC(=O)C2 inactive

Write down the call the test reported for this compound. Item: O=C(c1ccc(Cl)cc1)C1[C@H](c2ccc(Br)cc2)[C@@H](c2ccccc2)NC12C(=O)Nc1ccc(Cl)cc12 (stereo partly drawn) active
